Data origin, for the record: PubChem BioAssay (NCI)

- System: MDA-MB-231 breast
- Assay Remarks: NCI-60 one-dose screen, 48 h (100 = growth as untreated, 0 = no growth, -100 = all killed)
- Test Settings: 10 µM unless noted
Compounds without any hit were thinned out: in the full panel of roughly 83,000, 20% have a hit.
Attribute: growth
Numbers only; they are read as %.

[[record]]
compound = "Nc1ccc2ccccc2c1-c1c(N)ccc2ccccc12"
property_measured = "growth"
recorded_measurement = 43

[[record]]
compound = "Cc1c(Cl)cccc1NC(=S)NC(=O)c1ccccc1"
property_measured = "growth"
recorded_measurement = 90.2

[[record]]
compound = "COc1ccc2c(ccc[n+]2C)c1"
property_measured = "growth"
recorded_measurement = 101

[[record]]
compound = "Cc1cc(=O)n(Nc2ccccc2)c(O)c1C#N"
property_measured = "growth"
recorded_measurement = 103

[[record]]
compound = "CCCCCCCCNC(=O)C(C)C"
property_measured = "growth"
recorded_measurement = 109


Test item "CCOC(=O)Nc1nccs1" ; MDA-MB-231 breast; reported growth was 87

// compound "CCCCCC(=O)OCCC1CCCCC1" , assay MDA-MB-231 breast, growth value: 114

For the compound CC(=O)OC/C(C)=C\CC(C)COC(C)=O (centres undefined) , the measured growth on MDA-MB-231 breast was 99.7

growth value, target or system MDA-MB-231 breast, for "c1cc(CNCCNCc2ccncc2)ccn1" : 104

Fill in: MDA-MB-231 breast growth for "CCOC(=O)C(=O)CC(=O)c1ccccc1" = 92.9

Recorded growth for "C#CCSc1nnnn1-c1ccccc1" on MDA-MB-231 breast was 96

Response field growth (MDA-MB-231 breast) for item "CCOC(=O)CSCCC#N" : 110

---

// reported growth per item
- Test system: HT29 colon
- Assay Remarks: NCI-60 one-dose screen, 48 h (100 = growth as untreated, 0 = no growth, -100 = all killed)
- Test Settings: 10 µM unless noted
Compounds without any hit were thinned out: in the full panel of roughly 83,000, 20% have a hit.
Please state the figure in %; there is no need to write the unit.

[[record]]
structure_string = "NC(=O)NCCO"
recorded_measurement = 100

[[record]]
structure_string = "O=C(c1cccc(C(=O)c2ccc3c4c(cccc24)C(=O)N(c2ccccc2)C3=O)c1)c1ccc2c3c(cccc13)C(=O)N(c1ccccc1)C2=O"
recorded_measurement = 106

[[record]]
structure_string = "C/C(O)=C(/C=N\\C(=S)Nc1ccc(S(=O)(=O)Nc2nccs2)cc1)C(=O)Nc1ccccc1C"
recorded_measurement = 116


Item: "O=C(c1ccccc1O)N1CCCC1" | System: HT29 colon | growth: 93

The observed growth for "O=C(CCCl)OCCOc1ccccc1" when tested with HT29 colon stands at 102

Bench note, HT29 colon: "Cc1[nH]c(=S)[nH]c(=O)c1C" , growth reads 104

---

- Test system: UACC-257 melanoma
- Assay Remarks: NCI-60 one-dose screen, 48 h (100 = growth as untreated, 0 = no growth, -100 = all killed)
- Test Settings: 10 µM unless noted
This is part of a sample that, as a whole, favours compounds with a hit. Of some 83,000 tested, about 20% had one in any assay.
Property Measured: growth (%)
Report only the number, with the unit % understood.

# value of growth, UACC-257 melanoma, item "Cc1nc(C)c(C(=O)O)cc1C(=O)O" = 111

Lab entry: UACC-257 melanoma assay, compound "COc1ccc2c(c1)Nc1ccccc1S2" , growth = 115

Given the compound "CN(C)c1ccc2nc3ccc(=[N+](C)C)cc-3oc2c1" and test system UACC-257 melanoma, the measured growth is -30.1

Form field growth for item "O=C(O)c1ccccc1Cc1ccc2c(c1)CCCC2" on UACC-257 melanoma: 100

Note to self: growth of "NC(=O)N1CCOCC1" with UACC-257 melanoma was 119

---

- Test system: PC-3 prostate
- Assay Remarks: NCI-60 one-dose screen, 48 h
- Test Settings: 10 µM unless noted
The panel holds about 83,000 compounds, 20% with a hit somewhere; the sample as a whole holds those more often. Active and inactive are the calls of the source. How the source made its calls: active means growth percent below 10; inactive means the rest.
Assign a class; possible classes are 1 (yes) (active), 0 (no) (inactive)

What did this assay record as the result for CC(c1ccccc1)N(C)C (configuration not stated) ? 0 (no)

Kindly provide the recorded test outcome for the following molecule: OC(CBr)CCBr (configuration not stated) 0 (no)

# fetch the recorded call for "COc1ccc2c(ccc[n+]2C)c1" here 0 (no)

Called result for "CCOC(=O)c1c(C)[nH]c(C)c1C=O" 0 (no)

---

- Test system: RPMI-8226 leukemia
- Assay Remarks: NCI-60 one-dose screen, 48 h
- Test Settings: 10 µM unless noted
This is part of a sample that, as a whole, favours compounds with a hit. Of some 83,000 tested, about 20% had one in any assay. Active and inactive are the calls of the source. The calls were made as follows: active = growth percent below 10; inactive = the rest.
A correct response names exactly one class from active, inactive

Use the examples below as a reference point.
[[record]]
compound = "COc1cc(-c2ccc(NC(=O)CC(C)=O)c(OC)c2)ccc1NC(=O)CC(C)=O"
assigned_label = "inactive"

[[record]]
compound = "CSCCC(NC(=O)C(Cl)Cl)C(=O)O (configuration not stated)"
assigned_label = "inactive"

[[record]]
compound = "CC(CCC#N)(CCC#N)C(=O)c1ccccc1"
assigned_label = "inactive"

[[record]]
compound = "CC(=O)Nc1ncc(S(=O)(=O)c2ccc([N+](=O)[O-])cc2)s1"
assigned_label = "inactive"

[[record]]
compound = "N#Cc1ccc2nc[nH]c2c1"
assigned_label = "inactive"


Dear all, I need the recorded test outcome for O=C(O)C1CCCN1C(=O)OCc1ccccc1 (configuration not stated) , thank you. inactive

Hello, I am checking results. What call was entered for "Cc1ccc(N2C(=O)c3cccc4c(N)c(S(=O)(=O)O)cc(c34)C2=O)cc1" ? inactive

Any idea what this test logged for "C#CCSc1nnnn1-c1ccccc1" ? inactive

---

- Test system: SR leukemia
- Assay Remarks: NCI-60 one-dose screen, 48 h
- Test Settings: 10 µM unless noted
The panel holds about 83,000 compounds, 20% with a hit somewhere; the sample as a whole holds those more often. Activity calls are given as the source filed them. How the source made its calls: active means growth percent below 10; inactive means the rest.
Choose one outcome from this list and give only that: yes (active), no (inactive)

Before answering, review these 5 worked examples.
[[record]]
compound = "CCC(/C=C\\C(C)=O)CC"
assigned_label = "no"

[[record]]
compound = "COc1ccc(Br)c(C=O)c1"
assigned_label = "yes"

[[record]]
compound = "CN(C)c1ccc2nc3ccc(=[N+](C)C)cc-3oc2c1"
assigned_label = "no"

[[record]]
compound = "Cc1ccc(NCN2C(=O)c3ccccc3C2=O)c(C)n1"
assigned_label = "no"

[[record]]
compound = "Nc1ccc(F)c(Cl)c1F"
assigned_label = "no"


// param item: "Nc1nc(Cl)cc(Cl)n1" ; yields the recorded call no

Dear all, I need the recorded test outcome for "CC(=O)Nc1ncc(S(=O)(=O)c2ccc([N+](=O)[O-])cc2)s1" , thank you. no

# outcome recorded in this test, key = "CNc1ccccc1C(=O)N/N=C/C=C/c1ccccc1" yes

Assay result, entry "CCOC(=O)/C(O)=C(\C=N\C(=S)Nc1ccc(Cl)c(Cl)c1)C(=O)OCC" — outcome? no

Fill in: this test's call for "CCc1ccccc1C(=O)N(CC)CC" is ___ no

Status in this test for "Nc1ccc2ccccc2c1-c1c(N)ccc2ccccc12" ? yes

I'd appreciate the recorded outcome for "OCCOc1ccc(-c2cc(-c3ccccn3)nc(-c3ccccn3)c2)cc1" from this test. yes

I'd appreciate the recorded outcome for "Cc1c(Cl)cccc1NC(=S)NC(=O)c1ccccc1" from this test. no

What did the test return for "Cc1cc2nc(C)c(C)nc2cc1C" ? no

Hello, I am checking results. What call was entered for C=COC(=O)CCOCC(CC)CCCC (centres undefined) ? no

Name the outcome recorded for O=C(OCC1CCCO1)c1ccc([N+](=O)[O-])cc1 (centres undefined) in the assay. no

# outcome recorded in this test, key = COC1OC(CO)C(OC)C(O)C1O (centres undefined) no

Assay outcome for "NC(=O)NCCO" : what was it? no

Record request — test call for "CCN(CC)CCOC(=O)Nc1c(C(C)C)cccc1C(C)C" no

Recorded call for CN1CCCN(C(c2ccccc2)c2ccc(Br)cc2)CC1 (centres undefined) ? yes

---

- Tested on: CCRF-CEM leukemia
- Assay Remarks: NCI-60 one-dose screen, 48 h (100 = growth as untreated, 0 = no growth, -100 = all killed)
- Test Settings: 10 µM unless noted
The panel holds about 83,000 compounds, 20% with a hit somewhere; the sample as a whole holds those more often. Activity calls are given as the source filed them. Rule for the calls: active = growth percent below 10; inactive = the rest.
The reader will find reported growth values listed item by item below.

Examples from the recorded data:
[[record]]
compound = "CCOc1ccncc1[N+](=O)[O-]"
target_under_test = "CCRF-CEM leukemia"
property_measured = "growth"
recorded_measurement = "109% (inactive)"

[[record]]
compound = "C=CCNC(=S)N/C=C(/C(=O)c1ccccc1)c1ccccc1"
target_under_test = "CCRF-CEM leukemia"
property_measured = "growth"
recorded_measurement = "101% (inactive)"

[[record]]
compound = "O=C(O)CSCC(=O)Nc1cc(C(F)(F)F)ccc1Cl"
target_under_test = "CCRF-CEM leukemia"
property_measured = "growth"
recorded_measurement = "101% (inactive)"

[[record]]
compound = "CCOC(=O)C(=O)CC(=O)c1ccccc1"
target_under_test = "CCRF-CEM leukemia"
property_measured = "growth"
recorded_measurement = "114% (inactive)"

[[record]]
compound = "Nc1ncnc2c1ncn2C1OC(CO)C2OC21 (configuration not stated)"
target_under_test = "CCRF-CEM leukemia"
property_measured = "growth"
recorded_measurement = "105% (inactive)"

[[record]]
compound = "O=C(N/N=C\\c1ccc(Cl)cc1Cl)c1ccncc1"
target_under_test = "CCRF-CEM leukemia"
property_measured = "growth"
recorded_measurement = "99.6% (inactive)"


The compound "CCOC(=N)CC(=O)Nc1cccc(C)c1Cl" on CCRF-CEM leukemia: growth was 109% (inactive)

Entry "O=C(O)Cc1ccc(Cl)cc1" ; assay system CCRF-CEM leukemia; growth recorded at 132% (inactive)

Per the reported CCRF-CEM leukemia data, "CCOC(=O)c1ccc(NC(C)=O)o1" has growth of 98.8% (inactive)

Test item "FC(F)(F)c1cc(NC2=NCCN=C(Nc3cc(C(F)(F)F)cc(C(F)(F)F)c3)SS2)cc(C(F)(F)F)c1" ; CCRF-CEM leukemia; reported growth was 28.8% (inactive)

Item "O=Cc1ccc(Cl)c(Cl)c1" was tested on CCRF-CEM leukemia; the reported growth is 97.8% (inactive)
